# experimentDescription: fission yeast growth modulation, primary screen, strain 972, OD600, 24 h, no modulator (AID 1090);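 further: basal condition with compound alone and no growth modifier present; test concentration not given here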
# testSettings: S. pombe 972 growth, higher = more signal, called active from +8 up or from −8 down
Activity calls are given as the source filed them.
Catalogue of z-score values

[
  {
    "compound": "COCCOC(=O)N1C(=O)[C@@]2(c3cc(C#Cc4ccc(OC)cc4)ccc31)[C@H](c1ccc(O)cc1)N1[C@H](c3ccccc3)[C@H](c3ccccc3)OC(=O)[C@H]1[C@@H]2C(=O)N1CCc2cc(OC)c(OC)cc2C1",
    "z-score": "-0.133 (inactive)"
  },
  {
    "compound": "CC(C)N1C(=O)[C@@]2(Cc3ccccc31)c1ccccc1C(=O)N(Cc1ccccc1Cl)[C@H]2c1ccc(CO)cc1",
    "z-score": "-1.17 (inactive)"
  },
  {
    "compound": "CC#CC(=O)Oc1ccccc1C=CC(=O)OCC",
    "z-score": "-15.4 (active)"
  },
  {
    "compound": "O=C1C2C=CC(C(O)c3cc(C(F)(F)F)cc(C(F)(F)F)c3)N(n3cnnc3)C2C(=O)N1Cc1ccccc1 (configuration not stated)",
    "z-score": "0.685 (inactive)"
  },
  {
    "compound": "C=CCNC(=O)[C@@H]1[C@H]2C(=O)O[C@H](c3ccccc3)[C@H](c3ccccc3)N2[C@H](c2ccc(OCCO)cc2)[C@@]12C(=O)Nc1ccc(C#CCC(C(=O)OC)C(=O)OC)cc12",
    "z-score": "2.03 (inactive)"
  }
]

[in] Given [N-]=[N+]=Nc1ccccc1[C@H]1OC(c2ccc(OCCCO)cc2)=N[C@@]1(CCS(=O)(=O)c1ccccc1)C(=O)NCC(O)CO (some centres not stated) , state its recorded z-score.
[out] -0.213 (inactive)

[in] // query z-score value for entry C=C(CCCC)/C(=C/C[C@@H](OC(C)=O)c1ccc(OCCO)cc1)c1cnc2ccccc2c1
[out] -1.44 (inactive)

[in] Please give the measured z-score for this compound: CCC(CC)C(O)C1C=CC2C(=O)NC(=O)C2N1Nc1ccccn1 (configuration not stated)
[out] 1.22 (inactive)

[in] Could you tell me which z-score is on file for O=C1O[C@@H](c2ccccc2)[C@@H](c2ccccc2)N2[C@@H](c3ccccc3OCCO)[C@]3(C(=O)Nc4ccc(C#CC5=CCCCC5)cc43)[C@@H](C(=O)N3CCCCCCC3)[C@H]12 ?
[out] -0.354 (inactive)

[in] What z-score value was documented for this compound, CC(C)=CCN[C@H](CO)c1ccccc1 ?
[out] -4.99 (inactive)

[in] # get_value(readout='z-score', item= CCOC(=O)C[C@H]1[C@H](OC(=O)c2cc3ccccc3oc2=O)[C@@H](NC(=O)c2ccccc2)c2cc(OCCCO)ccc2N1C(=O)c1ccc2ccccc2n1 )
[out] -0.12 (inactive)

[in] Sample COc1ccc(-c2cc3c(c(-c4ccc(Oc5ccccc5)cc4)n2)[Si](C(C)C)(C(C)C)OC3)cn1 — what was its z-score?
[out] 0.955 (inactive)
